25 μM % Lysed cells (1 h LDH) reference
# Test system: SJSA-1 cells
# assayNotes: Cell lysis by peptidomimetic macrocycles (LDH release)
# Format: cell-based
# conditionLabel: 25 μM, SJSA-1, 1 h
Bridge positions count the residues as written; N and C are the ends. Square brackets hold non-standard residues; d marks the D form. Peptide text beside a SMILES is read from it. R8 = C=CCCCCCC[C@@](C)(N)C(=O)O; S5 = C=CCCC[C@](C)(N)C(=O)O
Output spec: scalar in %, unitless text.

- CC(=O)N[C@@H](CC(C)C)C(=O)N[C@H](C(=O)N[C@@H](Cc1ccccc1)C(=O)N[C@]1(C)CCCCCCC=CCCC[C@@](C)(C(=O)N[C@@H](CO)C(=O)N[C@@H](C)C(=O)N[C@@H](Cc2ccccc2)C(N)=O)NC(=O)[C@H](CC(C)C)NC(=O)[C@H](CCC(N)=O)NC(=O)[C@H](C)NC(=O)[C@H](Cc2c[nH]c3ccccc23)NC(=O)[C@H](Cc2ccc(O)cc2)NC(=O)[C@H](C)NC1=O)[C@@H](C)O [compound 7] (Ac-LTF[R8]AYWAQL[S5]SAF-NH2; staple 4-11): 0

Continue with the next molecule.
INPUT: Which 25 μM % Lysed cells (1 h LDH) is reported for this molecule? CC(=O)N[C@@H](CC(C)C)C(=O)N[C@H](C(=O)N[C@@H](Cc1ccccc1)C(=O)N[C@]1(C)CCCCCCC=CCCC[C@@](C)(C(=O)N[C@@H](CO)C(=O)N[C@@H](C)C(=O)N[C@@H](C)C(N)=O)NC(=O)[C@H](CC(C)C)NC(=O)[C@H](C)NC(=O)[C@H](C(C)C)NC(=O)[C@H](Cc2c[nH]c3ccccc23)NC(=O)[C@H](Cc2ccc(O)cc2)NC(=O)[C@H](C)NC1=O)[C@@H](C)O [compound 196] (Ac-LTF[R8]AYWVAL[S5]SAA-NH2; staple 4-11)
OUTPUT: 0

* * *

# System: SJSA-1 cells
# assayNotes: Cell lysis by peptidomimetic macrocycles (LDH release)
# Assay type: cell-based
# conditionLabel: 25 μM, SJSA-1, 1 h
valueType: 25 μM % Lysed cells (1 h LDH) (%)
Output spec: scalar in %, unitless text.

INPUT: Identify the measured 25 μM % Lysed cells (1 h LDH) of CC(=O)N[C@@H](CC(C)C)C(=O)N[C@H](C(=O)N[C@@H](Cc1ccccc1)C(=O)N[C@]1(C)CCCCCCC=CCCC[C@@](C)(C(=O)N[C@@H](C)C(=O)N[C@@H](C)C(=O)N[C@@H](C)C(=O)N[C@@H](C)C(=O)N[C@@H](C)C(=O)N[C@H](C)C(N)=O)NC(=O)[C@H](CC2CCC2)NC(=O)[C@H](CCC(N)=O)NC(=O)[C@H](C)NC(=O)[C@H](Cc2c[nH]c3ccccc23)NC(=O)[C@H](Cc2ccc(O)cc2)NC(=O)[C@H](CCC(=O)O)NC1=O)[C@@H](C)O (single isomer, unassigned) for SJSA-1 cells.
OUTPUT: 0

* * *

# Tested on: Caspase 3
# assayNotes: Caspase 3 detection assay in SJSA1 cells
# Format: cell-based
# conditionLabel: 3 μM, SJSA1, 48 h, Caspase 3 activation over DMSO-treated cells
Bridge positions count the residues as written; N and C are the ends. Square brackets hold non-standard residues; d marks the D form. Peptide text beside a SMILES is read from it. R8 = C=CCCCCCC[C@@](C)(N)C(=O)O; S5 = C=CCCC[C@](C)(N)C(=O)O
valueType: caspase 3 μM
Answer using only a numeral; do not append any unit.

Guide cases for caspase 3 μM, answers given:
• CCCC[C@H](NC(=O)[C@H](C)NC(=O)[C@H](C)NC(=O)[C@]1(C)CCC/C=C/CCCCCC[C@@](C)(NC(=O)[C@H](Cc2ccccc2)NC(=O)[C@@H](NC(=O)[C@H](CC(C)C)NC(C)=O)[C@@H](C)O)C(=O)N[C@@H](C)C(=O)N[C@@H](Cc2ccc(O)cc2)C(=O)N[C@@H](Cc2c[nH]c3ccccc23)C(=O)N[C@@H](C)C(=O)N[C@@H](CCC(N)=O)C(=O)N[C@@H](CC(C)C)C(=O)N1)C(=O)N[C@@H](C)C(N)=O [compound 69] = 16.39
• CSCC[C@H](NC(=O)[C@H](C)NC(=O)[C@H](C)NC(=O)[C@]1(C)CCCC=CCCCCCC[C@@](C)(NC(=O)[C@H](Cc2ccccc2)NC(=O)[C@@H](NC(=O)[C@H](CC(C)C)NC(C)=O)[C@@H](C)O)C(=O)N[C@@H](C)C(=O)N[C@@H](Cc2ccc(O)cc2)C(=O)N[C@@H](Cc2c[nH]c3ccccc23)C(=O)N[C@@H](C)C(=O)N[C@@H](C)C(=O)N[C@@H](CC(C)C)C(=O)N1)C(=O)N[C@H](C)C(N)=O [compound 72] (Ac-LTF[R8]AYWAAL[S5]AAM[dA]-NH2; staple 4-11) = 1
• CC(=O)N[C@@H](CC(C)C)C(=O)N[C@H](C(=O)N[C@@H](Cc1ccccc1)C(=O)N[C@]1(C)CCCCCCC=CCCC[C@@](C)(C(=O)N[C@@H](C)C(=O)N[C@@H](C)C(=O)N[C@@H](C)C(=O)N[C@@H](C)C(=O)N[C@@H](C)C(=O)N[C@H](C)C(N)=O)NC(=O)[C@H](CC2CCC2)NC(=O)[C@H](CCC(N)=O)NC(=O)[C@H](C)NC(=O)[C@H](Cc2c[nH]c3ccccc23)NC(=O)[C@H](Cc2ccc(O)cc2)NC(=O)[C@H](CCC(=O)O)NC1=O)[C@@H](C)O (single isomer, unassigned) [compound 347] = 5

Continue with the next compound.
INPUT: Which caspase 3 μM is reported for this compound? CC(=O)N[C@@H](CC(C)C)C(=O)N[C@H](C(=O)N[C@@H](Cc1ccccc1)C(=O)N[C@]1(C)CCCCCCC=CCCC[C@@](C)(C(=O)N[C@@H](C)C(=O)N[C@@H](C)C(=O)N[C@H](C(=O)N[C@H](C)C(N)=O)C(C)C)NC(=O)[C@H](CC(C)C)NC(=O)[C@H](CCC(N)=O)NC(=O)[C@H](C)NC(=O)[C@H](Cc2c[nH]c3ccccc23)NC(=O)[C@H](Cc2ccc(O)cc2)NC(=O)[C@H](CCC(=O)O)NC1=O)[C@@H](C)O (single isomer, unassigned) [compound 221]
OUTPUT: 3
